SYSTEM: UniProt Q9NR97
Sequence (Q9NR97 27-1041): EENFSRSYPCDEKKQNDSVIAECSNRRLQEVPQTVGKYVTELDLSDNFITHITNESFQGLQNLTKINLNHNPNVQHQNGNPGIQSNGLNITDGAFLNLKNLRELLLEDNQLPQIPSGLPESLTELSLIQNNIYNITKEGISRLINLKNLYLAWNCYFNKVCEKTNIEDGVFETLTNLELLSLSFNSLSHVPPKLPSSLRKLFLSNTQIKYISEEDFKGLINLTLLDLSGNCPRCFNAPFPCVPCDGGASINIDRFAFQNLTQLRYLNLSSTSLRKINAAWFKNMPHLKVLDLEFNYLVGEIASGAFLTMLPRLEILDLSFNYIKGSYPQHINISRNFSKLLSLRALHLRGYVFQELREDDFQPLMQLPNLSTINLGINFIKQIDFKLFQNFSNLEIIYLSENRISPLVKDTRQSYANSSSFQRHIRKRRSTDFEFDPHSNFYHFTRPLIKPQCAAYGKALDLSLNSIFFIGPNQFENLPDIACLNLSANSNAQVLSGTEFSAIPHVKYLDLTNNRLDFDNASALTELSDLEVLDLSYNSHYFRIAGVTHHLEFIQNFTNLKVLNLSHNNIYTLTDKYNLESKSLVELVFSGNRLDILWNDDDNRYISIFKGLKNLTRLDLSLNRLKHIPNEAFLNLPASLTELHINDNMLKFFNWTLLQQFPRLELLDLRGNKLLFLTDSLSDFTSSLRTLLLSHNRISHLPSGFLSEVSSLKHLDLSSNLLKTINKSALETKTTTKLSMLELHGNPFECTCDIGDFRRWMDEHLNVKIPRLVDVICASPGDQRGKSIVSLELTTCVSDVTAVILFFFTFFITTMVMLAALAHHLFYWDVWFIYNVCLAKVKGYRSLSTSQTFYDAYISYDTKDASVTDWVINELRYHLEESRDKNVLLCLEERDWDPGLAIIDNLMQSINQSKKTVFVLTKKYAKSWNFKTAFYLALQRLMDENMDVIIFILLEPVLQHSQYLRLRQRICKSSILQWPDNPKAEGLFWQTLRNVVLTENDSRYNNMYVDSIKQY
PROCEDURE_TEXT: Agonistic activity of compounds on hTLR8 (HEK-Blue hTLR8 cells, QUANTI-Blue OD650)
REPORTED_CONDITIONS: 24 h
TEST_READOUT: log10 of EC50 (log10 of the value in nM)
A difference of one corresponds to tenfold EC50; all values are log10 with EC50 in nM.

Please look up its log10 of EC50: CCOCc1nc2c(N)nc3cccc(CCCCCN)c3c2s1 2.41

Please look up its log10 of EC50: CCCN(CCC)C(=O)C1=Cc2ccc(-c3ccc(C(=O)N4CCCC4)cc3)cc2N=C(N)C1 [VTX-2337, reference compound] 1.32

Please look up its log10 of EC50: CCCCc1nc2c(N)nc3cccc(CCCCCCN)c3c2s1 2.24

Please look up its log10 of EC50: CCCN(Cc1cccc(N)c1)C(=O)C1=Cc2ccc(-c3cncc(CO)c3)cc2N=C(N)C1 1.78

Please look up its log10 of EC50: CCCCc1nc2c(N)nc3cccc(CCCCCN)c3c2o1 1.05

Please look up its log10 of EC50: CCCCc1nc2c(N)nc3cccc(CCCCCN)c3c2s1 1.06

Please look up its log10 of EC50: CCCN(Cc1ccc(N)cc1)C(=O)C1=Cc2ccc(-c3ccc4c(c3)C(=O)OC4)cc2N=C(N)C1 2.64

Please look up its log10 of EC50: CCCN(Cc1ccc(N)cc1)C(=O)C1=Cc2ccc(-c3cncc(CO)c3)cc2N=C(N)C1 1.52
